Where these numbers come from: PubChem BioAssay (NCI)

# System: NCI/ADR-RES ovarian
# procedure summary: NCI tumour cell line growth inhibition, 48 h
The threshold is inclusive: TGI of exactly 7 µM counts as YES; values below receive NO.

| compound | assigned label |
| --- | --- |
| COC(=O)c1c(C)cccc1C1CN=NC12Cc1c(C)cccc1C2=O (configuration not stated) | YES |
| COc1cc([N+](=O)[O-])c(S(=O)(=O)O)cc1-n1nc(-c2ccccc2)n[n+]1-c1cc(S(=O)(=O)[O-])c([N+](=O)[O-])cc1OC | YES |
| COc1ccc(Oc2nc3cc(C(F)(F)F)ccc3nc2C(C)C)cc1 | YES |
| C=C(C)[C@@H]1CC[C@]2(c3ncc(C)o3)CC[C@]3(C)[C@H](CC[C@@H]4[C@@](C)(CCC#N)[C@H](C(=C)C)CC[C@]43C)[C@@H]12 | YES |
| C=C(C)[C@@H]1CC[C@]2(C)[C@H](CC=C3[C@@H]4CC(C)(C)CC[C@]4(C(=O)OC)CC[C@]32C)[C@@]1(C)CC/C(N)=N/O | NO |
| O=C(C1=CCC2(CC1)OCCO2)N(Cc1ccccc1)c1ccccc1I | YES |
| COc1ccc(/C=C2/CCOC2=O)cc1 | YES |
| Cn1cc(C=C(C#N)C#N)c(=O)n(C)c1=O | YES |
| COc1ccc(C(=O)N=C2N(c3ccccc3)C(=Nc3ccccc3)C(=Nc3ccccc3)N2c2ccccc2)cc1 | YES |
| CO/N=C(\COc1ccc2c(=O)cc(-c3ccccc3)oc2c1)c1ccc(OC)cc1 | YES |
| O=C(/C=C/c1ccc(O)c(O)c1)Oc1ccccc1 | YES |
| C/C=C1/CN2CC[C@@H]3c4ccccc4N4[C@H](C(=O)OC)[C@H]1C[C@H]2[C@]34/C=C/C1=COC[C@@H]2[C@H]1C[C@H]1c3c(c4ccccc4n3C)C[C@@H]2N1C | NO |
| COc1ccc(OC)c2c1C(=O)C(Cl)=C(Cl)C2=O | NO |
| CC(=O)OCC1OC(Sc2nc(-c3ccc(C)cc3)c(C#N)c(=O)n2C2OC(COC(C)=O)C(OC(C)=O)C(OC(C)=O)C2OC(C)=O)C(OC(C)=O)C(OC(C)=O)C1OC(C)=O (configuration not stated) | YES |
| CC1(C)[C@@H]2C[C@H]1C(Cc1ccccc1C[C@H]1c3cc(-c4ccccn4)ncc3[C@H]3C[C@@H]1C3(C)C)c1cc(-c3ccccn3)ncc12 (some centres not stated) | YES |
| COC(=O)c1ccccc1C1CN=NC12Cc1c(C)c3c(c(C)c1C2=O)CCC3 (configuration not stated) | YES |
| COc1cc(CSc2ccc(O)cc2)cc(O)c1O | YES |
